Hello, the source for this data is patent US11427783B2, in case you need it.

test: Volatility of perfuming compounds in air; format: physicochemical; details: Table 8, perfuming compounds having a sweet note
Strictly below 70 μg/l air in Volatility (μg/l air): 1.0. Otherwise: 0.0.

Completed entries (count: 3):
{"MOLECULE": "CC(C)CC(=O)OCc1ccccc1 [BENZYL 3-METHYLBUTANOATE]", "CLASS ASSIGNMENT": 1.0}
{"MOLECULE": "CCCCC[C@@H]1OC(=O)C[C@H]1C (racemic) [(+−)-TRANS-3-METHYL-4-NONANOLIDE]", "CLASS ASSIGNMENT": 1.0}
{"MOLECULE": "COc1cc(C)ccc1O", "CLASS ASSIGNMENT": 0.0}

Read the next record carefully.
Task: Is it true that Volatility (μg/l air) reported for C/C=C/C(=O)[C@@H]1[C@@H](C)C=CCC1(C)C (racemic) is less than 70 μg/l air?
Output: 0.0
